Overview of reported pIC50 across a group of molecules:
target: human neutrophil elastase (Homo sapiens, UniProt P08246); construct: using elastase from human neutrophil or human sputum; from tissue; host or cells: human neutrophil; test: Inhibitory effect on elastase (human neutrophil), spectrophotometric assay with MeOSuc-Ala-Ala-Pro-Val-pNA; format: biochemical; conditions: N: human neutrophil elastase; pH 8.0, 37° C.; read-out: IC50
Sequence (P08246 30-247 limits assumed): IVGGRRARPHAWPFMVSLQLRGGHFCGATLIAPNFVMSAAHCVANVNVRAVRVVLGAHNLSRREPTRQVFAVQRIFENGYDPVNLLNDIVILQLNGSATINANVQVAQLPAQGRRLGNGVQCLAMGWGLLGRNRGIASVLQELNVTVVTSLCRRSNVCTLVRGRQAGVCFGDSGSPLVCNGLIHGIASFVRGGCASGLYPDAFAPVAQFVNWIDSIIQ
Where a name gives a salt, the structure may show the parent alone.
// pIC50 here means minus log10 of the molar concentration (mol/L)

Below, each entry is followed by its recorded pIC50 result.
CN(C)c1ccc(Cn2nnc(-c3ccc(OC(=O)C(C)(C)C)cc3)n2)cc1 [Example 16]	7.52
CN(C)CCOc1ccc(Cn2nnc(-c3ccc(OC(=O)C(C)(C)C)cc3)n2)cc1 [Example 46, Hydrochloride]	7.05

Continue with the molecule presented below.
Tell me its pIC50 given CC(C)(C)C(=O)Oc1ccc(-c2nnn(Cc3ccccc3C(=O)NCC(=O)O)n2)cc1 [Example 63] as the entry.
6.52
